# assayed_target: human ether-à-go-go-related gene (hERG) potassium channel (human);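 also: peak tail current of the secondary pulse compared with the same well before compound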
# Sequence (Q12809 whole entry, looked up): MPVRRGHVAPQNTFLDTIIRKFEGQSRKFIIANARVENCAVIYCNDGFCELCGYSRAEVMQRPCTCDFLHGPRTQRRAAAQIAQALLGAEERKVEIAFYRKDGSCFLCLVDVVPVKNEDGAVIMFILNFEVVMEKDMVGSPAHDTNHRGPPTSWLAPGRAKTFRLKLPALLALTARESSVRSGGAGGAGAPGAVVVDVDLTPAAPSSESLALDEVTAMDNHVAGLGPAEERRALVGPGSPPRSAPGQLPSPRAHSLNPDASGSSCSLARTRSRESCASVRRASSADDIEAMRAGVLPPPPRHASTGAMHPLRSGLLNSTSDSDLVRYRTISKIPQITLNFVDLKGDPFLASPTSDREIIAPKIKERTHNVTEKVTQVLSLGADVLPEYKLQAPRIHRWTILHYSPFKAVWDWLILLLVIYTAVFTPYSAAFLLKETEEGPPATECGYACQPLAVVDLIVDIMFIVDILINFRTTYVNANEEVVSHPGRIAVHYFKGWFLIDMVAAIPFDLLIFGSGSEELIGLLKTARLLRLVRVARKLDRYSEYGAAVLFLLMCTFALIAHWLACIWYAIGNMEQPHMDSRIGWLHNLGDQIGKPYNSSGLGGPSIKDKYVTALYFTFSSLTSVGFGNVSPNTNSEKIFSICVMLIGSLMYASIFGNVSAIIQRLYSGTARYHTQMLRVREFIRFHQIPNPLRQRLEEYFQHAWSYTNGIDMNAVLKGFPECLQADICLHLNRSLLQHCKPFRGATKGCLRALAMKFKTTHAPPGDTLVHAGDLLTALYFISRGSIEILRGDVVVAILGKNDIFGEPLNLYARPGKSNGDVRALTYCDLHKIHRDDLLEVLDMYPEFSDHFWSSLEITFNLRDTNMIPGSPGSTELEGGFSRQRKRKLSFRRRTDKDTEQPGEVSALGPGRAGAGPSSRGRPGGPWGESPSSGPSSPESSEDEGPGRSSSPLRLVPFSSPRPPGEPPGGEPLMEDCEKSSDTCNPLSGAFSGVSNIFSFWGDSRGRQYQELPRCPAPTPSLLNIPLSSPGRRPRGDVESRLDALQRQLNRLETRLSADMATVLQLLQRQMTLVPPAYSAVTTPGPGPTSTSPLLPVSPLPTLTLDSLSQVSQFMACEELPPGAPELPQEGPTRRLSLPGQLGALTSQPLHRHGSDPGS
# test: primary screen, population patch clamp on CHO cells stably expressing hERG; higher = less effect of the substance
In all, about 310,000 compounds went through this assay and about 14,000 (4.5%) showed an effect of 50% or more. The effect is printed as a negative number. This is one part of a sample in which strong results are shown more often than they occur.
The reader will find reported hERG current change (%, negative = inhibition) at 10uM values listed item by item below.

Observe how each entry below is paired with its result.
For CC(=O)c1ccccc1NC(=O)C1C2CCC(O2)C1C(=O)O (stereo not drawn) the compound record lists hERG current change (%, negative = inhibition) at 10uM as 8.81%

# hERG current change (%, negative = inhibition) at 10uM (compound: "CS(=O)(=O)Nc1ccc(C(=O)N2CCCC2)cc1" ) is -7.75%

# compound "CC(C)(C)C(=O)/C=C(\N)c1ccncc1" ; its hERG current change (%, negative = inhibition) at 10uM = 1.74%

hERG current change (%, negative = inhibition) at 10uM for "CS(=O)(=O)Nc1ccc(C(=O)N2CCN(c3ccccc3F)CC2)cc1" is -68.1%

get_value(item= "O=C(c1ccccc1)N1CCN(c2ccccc2F)CC1" , readout=hERG current change (%, negative = inhibition) at 10uM) returns 10.1%

Okay, next one:
Input "O=C(Nc1ccc(C(=O)N2CCN(c3ccc(F)cc3)CC2)cc1)C1=CSCCO1" . Output hERG current change (%, negative = inhibition) at 10uM: -38.1%

---

# assayed_target: human ether-à-go-go-related gene (hERG) potassium channel (human);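 also: peak tail current of the secondary pulse compared with the same well before compound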
# test: primary screen, population patch clamp on CHO cells stably expressing hERG; higher = less effect of the substance
# Protocol: Briefly, Chinese hamster ovary (CHO) cells stably expressing the hERG channel were dislodged from tissue culture flasks and dispensed into PPC plates. […] During the recording, background leak currents were estimated by a 100 ms step to -80 mV from an initial holding potential of -70 mV and subtracted from the subsequent current measurement. The campaign was conducted in two phases using slight differences in recording protocol. […]
The campaign covered roughly 310,000 compounds. About 14,000 (4.5%) showed an effect of 50% or more. Effects have a minus sign here. Shown is part of a subset that was picked to be rich in strong results.
reported_property: hERG current change (%, negative = inhibition) at 10uM (%)
// return numeric value only (unit: %, not printed)

Guide cases for hERG current change (%, negative = inhibition) at 10uM, answers given:
For record "O=[N+]([O-])c1ccc(N2CCCCC2)cc1N1CCOCC1" the listed hERG current change (%, negative = inhibition) at 10uM is -11.3

Form: compound = "COc1ccc(Cl)cc1NC(=S)NCCc1ccc(S(N)(=O)=O)cc1" ; hERG current change (%, negative = inhibition) at 10uM = 5.52

Given item CCOC(=O)C1(Cc2ccccc2)CCCN(CCO)C1 (stereo not shown) , the value recorded as its hERG current change (%, negative = inhibition) at 10uM is 6.18

# hERG current change (%, negative = inhibition) at 10uM of "O=C(/C=C/c1ccc(Cl)cc1)N1CCOCC1" = 9.65

hERG current change (%, negative = inhibition) at 10uM for "Cc1cc(Cl)ccc1NC(=S)NCCc1ccc(S(N)(=O)=O)cc1" is -16.1

More entries:
Per the record, "O=C(/C=C/c1ccc(Cl)cc1)N1CCN(c2ccc([N+](=O)[O-])c(N3CCOCC3)c2)CC1" has hERG current change (%, negative = inhibition) at 10uM of -72.4

Note to self: hERG current change (%, negative = inhibition) at 10uM recorded for OC(CNCCc1ccc(Cl)cc1)COCc1ccco1 (stereo not shown) was -44.6

Consider "CC(=O)N1CCN(S(=O)(=O)c2cccc(C(=O)NCCc3ccc(Cl)cc3)c2)CC1" . Its measured hERG current change (%, negative = inhibition) at 10uM is -12.1

# hERG current change (%, negative = inhibition) at 10uM (compound: "COc1ccc(S(=O)(=O)NCCOc2ccccc2)cc1F" ) is 8.52

Briefly, hERG current change (%, negative = inhibition) at 10uM measured for "CCCCC(=O)Nc1nc(C)c(-c2csc(Nc3cc(OC)ccc3OC)n2)s1" : 5.95
